These measurements were taken from patent US20240182536A1.

experimental-target: T1, interleukin 18 binding protein (IL-18BP) (UniProt O95998 31-194)
T1 sequence (looked up): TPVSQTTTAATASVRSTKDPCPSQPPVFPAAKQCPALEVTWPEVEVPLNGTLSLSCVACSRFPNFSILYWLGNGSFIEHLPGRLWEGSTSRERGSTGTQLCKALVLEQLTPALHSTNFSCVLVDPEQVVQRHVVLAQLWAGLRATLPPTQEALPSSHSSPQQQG
assay-details: cell-based or functional assay
attribute-measured: Ratio (-BP/+BP), DF-10000

>>> value("IL-18 variant S36E, D37E, D40R, N41G, K53Y, S55F (ligand) YFGKLESKLSVIRNLNDQVLFIDQGNRPLFEDMTDEEMRRGAPRTIFIISMYYDFQPRGMAVTISVKSEKISTLSSENKIISFKEMNPPDNIKDTKSDIIFFQRSVPGHDNKMQFESSSYEGYFLASEKERDLFKLILKKEDELGDRSIMFTVQNED")
1.19
>>> value("IL-18 variant K53L, S55E (ligand) YFGKLESKLSVIRNLNDQVLFIDQGNRPLFEDMTDSDMRDNAPRTIFIISMYLDEQPRGMAVTISVKSEKISTLSSENKIISFKEMNPPDNIKDTKSDIIFFQRSVPGHDNKMQFESSSYEGYFLASEKERDLFKLILKKEDELGDRSIMFTVQNED")
1.12
>>> value("IL-18 variant K53H, S55Y (ligand) YFGKLESKLSVIRNLNDQVLFIDQGNRPLFEDMTDSDMRDNAPRTIFIISMYHDYQPRGMAVTISVKSEKISTLSSENKIISFKEMNPPDNIKDTKSDIIFFQRSVPGHDNKMQFESSSYEGYFLASEKERDLFKLILKKEDELGDRSIMFTVQNED")
0.91
